assayedSystem: 5α-Reductase-Type 2 (Homo sapiens, UniProt P31213)
Construct: 5α-Reductase-Type 2-Activity in Genital Dermal Homogenates; from tissue; host or cells: genital dermal (skin) homogenate
Sequence (P31213 1-254): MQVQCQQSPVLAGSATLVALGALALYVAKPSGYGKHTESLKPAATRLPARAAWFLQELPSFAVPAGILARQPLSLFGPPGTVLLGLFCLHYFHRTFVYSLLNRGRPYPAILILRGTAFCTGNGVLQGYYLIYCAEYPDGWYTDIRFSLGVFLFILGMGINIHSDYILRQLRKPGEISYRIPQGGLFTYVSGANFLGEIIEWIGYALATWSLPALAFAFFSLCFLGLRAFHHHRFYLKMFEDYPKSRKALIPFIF
experimentNotes: 5α-Reductase-type 2-activity in genital dermal homogenates
Type: biochemical
particulars: optimized conditions at pH 5.5
outcomeMeasure: IC50 (nM)
Answer format: numeric, nM implied, no suffix.

If you can, please state the reported IC50 value of C[C@]12CC[C@H]3[C@@H](CCC4=C(Cl)C(=O)CC[C@@H]43)[C@@H]1CC/C2=C\Cl .
250
